Test system: MRSA ATCC 700787 VRSA
Assay protocol: MIC, broth microdilution
Assay type: cell-based, Staphylococcus aureus
Reported conditions: MRSA ATCC 700787 VRSA
For each record, write down the corresponding MIC.
Answers are plain numbers, in µg/mL.

{"columns": ["Smiles", "Value unit", "MIC"],
 "data": [
  ["C#CCCC(=O)N[C@H]1[C@H](O[C@@H]2c3ccc(c(Cl)c3)Oc3cc4cc(c3O)Oc3ccc(cc3Cl)C[C@H]3NC(=O)[C@H](N)c5ccc(O)c(c5)Oc5cc(O)cc(c5)[C@H](NC3=O)C(=O)N[C@H]4C(=O)N[C@H]3C(=O)N[C@@H]2C(=O)N[C@H](C(=O)O)c2cc(O)cc(O)c2-c2cc3ccc2O)O[C@H](CO)[C@@H](O)[C@@H]1O", "µg/mL", 0.063],
  ["N[C@H]1C(=O)N[C@@H]2Cc3ccc(c(Cl)c3)Oc3cc4cc(c3O)Oc3ccc(cc3Cl)[C@@H](O[C@@H]3O[C@H](CO)[C@@H](O)[C@H](O)[C@H]3NC(=O)CCCCc3ccc(F)cc3)[C@@H]3NC(=O)[C@H](NC(=O)[C@@H]4NC(=O)[C@@H](NC2=O)c2cc(O)cc(c2)Oc2cc1ccc2O)c1ccc(O)c(c1)-c1c(O)cc(O)cc1[C@@H](C(=O)O)NC3=O", "µg/mL", 0.125],
  ["CN(C)[C@H]1C(=O)N[C@@H]2Cc3ccc(c(Cl)c3)Oc3cc4cc(c3O)Oc3ccc(cc3Cl)[C@@H](O[C@@H]3O[C@H](CO)[C@@H](O)[C@H](O)[C@H]3NC(=O)CCCCCCC[N+](C)(C)C)[C@@H]3NC(=O)[C@H](NC(=O)[C@@H]4NC(=O)[C@@H](NC2=O)c2cc(O)cc(c2)Oc2cc1ccc2O)c1ccc(O)c(c1)-c1c(O)cc(O)cc1[C@@H](C(=O)O)NC3=O", "µg/mL", 0.031]
]}

Prompt line: Which MIC reading was recorded for the molecule `N[C@H]1C(=O)N[C@@H]2Cc3ccc(c(Cl)c3)Oc3cc4cc(c3O)Oc3ccc(cc3Cl)[C@@H](O[C@@H]3O[C@H](CO)[C@@H](O)[C@H](O)[C@H]3NC(=O)CCCCCc3ccccc3)[C@@H]3NC(=O)[C@H](NC(=O)[C@@H]4NC(=O)[C@@H](NC2=O)c2cc(O)cc(c2)Oc2cc1ccc2O)c1ccc(O)c(c1)-c1c(O)cc(O)cc1[C@@H](C(=O)O)NC3=O` ?
Response line: 0.125
